# Read-out: Intercellular Adhesion Molecule 1 (ICAM1), ICAM1 (gene 3383)
# ASSAY OVERVIEW: BSK_BF4T_ICAM1: BioMAP Diversity Plus: BF4T Assay for Intercellular Adhesion Molecule 1 (ICAM1) Biomarker Activity (AID 2284260)
# CONDITION INFO: primary human bronchial epithelial cells with fibroblasts
The source made the active and inactive calls. The calls were made as follows: active = hit-call score of the fitted dose curve at least 0.9, where 1 is the maximum; inactive = score below 0.9.
READOUT NAME: outcome

Answered examples (4):
1) O=C(O)C(F)(F)OC(F)(F)C(F)(F)OC(F)(F)F
inactive
2) O=C(O)C(F)(OC(F)(F)C(F)(F)C(F)(F)F)C(F)(F)F (stereo not given)
inactive
3) O=C(O)C=CC(F)(C(F)(F)F)C(F)(F)F
inactive
4) O=C(O)C(F)(F)OC(F)(F)C(F)(F)OC(F)(F)C(=O)O
inactive

Pending compound:
Q. Could you share which outcome value was measured for COC(=O)C(F)(F)C(F)(F)OC(F)(C(F)(F)F)C(F)(F)OC(F)=C(F)F (stereo not given) ?
A. inactive
